test system: urethra (urethral pressure in anaesthetized rabbits); assay: Effects on urethral pressure in anaesthetized rabbits; format: in vivo, rabbit; settings: Oryctolagus cuniculus, iv, read-out: Max. urethral pressure in vivo, in % of NA-max, anaesthetized rabbits, i.v. injections of different doses; reference noradrenaline 0.025 μg/kg i.v.
Could you please report measured Emax for the items listed next?
Reply with just the number (in %).

IN: State its Emax on urethra (urethral pressure in anaesthetized rabbits): CCN(CC)CC(O)c1cccc(OC)c1OC(C)C (stereo not drawn)
OUT: 131

IN: // query: CCOc1c(Cl)cccc1C(O)CN(C)C.Cl (stereo not drawn) [Compound 2, hydrochloride]
OUT: 123

IN: Proceed to CCN(C)CC(O)c1cccc(Cl)c1OC(C)C.Cl (stereo not drawn) [Compound 11, hydrochloride]
OUT: 210

IN: Now consider CC(C)Oc1c(Cl)cccc1C(O)CN(C)C.Cl (stereo not drawn) [Compound 9, hydrochloride] and answer again.
OUT: 192

IN: Next compound: CC(N)C(O)c1ccccc1 (stereo not drawn) [PPA, phenylpropanolamine, reference compound]
OUT: 99

IN: Could you do the same for COc1cccc(C(O)CN(C)C)c1OC(C)C (stereo not drawn) , please?
OUT: 211
